Target: Peptidyl-prolyl cis-trans isomerase NIMA-interacting 1 (Homo sapiens, UniProt Q13526)
Sequence (Q13526 whole entry): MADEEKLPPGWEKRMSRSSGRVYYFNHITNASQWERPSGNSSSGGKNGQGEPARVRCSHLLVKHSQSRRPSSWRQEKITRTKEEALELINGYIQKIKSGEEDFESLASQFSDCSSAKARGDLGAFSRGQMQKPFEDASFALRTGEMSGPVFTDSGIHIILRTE
Consider the following compounds; for each one, report its pIC50.
Lab note: report pIC50 as minus log10 of the concentration in molar units, number only.

pIC50 on Peptidyl-prolyl cis-trans isomerase NIMA-interacting 1 (Homo sapiens, UniProt Q13526) for `O=[N+]([O-])c1cnc(Cl)nc1Oc1cccc2ocnc12` is 5.77

pIC50 on Peptidyl-prolyl cis-trans isomerase NIMA-interacting 1 (Homo sapiens, UniProt Q13526) for `O=[N+]([O-])c1cnc(Cl)nc1Oc1ccc(-c2ccccc2)cc1` is 4.47

pIC50 on Peptidyl-prolyl cis-trans isomerase NIMA-interacting 1 (Homo sapiens, UniProt Q13526) for `O=[N+]([O-])c1cnc(Cl)nc1OCc1ccccc1` is 5.08

pIC50 on Peptidyl-prolyl cis-trans isomerase NIMA-interacting 1 (Homo sapiens, UniProt Q13526) for `O=[N+]([O-])c1cnc(Cl)nc1OCCc1ccccc1` is 5.39

pIC50 on Peptidyl-prolyl cis-trans isomerase NIMA-interacting 1 (Homo sapiens, UniProt Q13526) for O=C1C=CC(=O)c2c(O)cccc21 [JUGLONE] is 5.23

pIC50 on Peptidyl-prolyl cis-trans isomerase NIMA-interacting 1 (Homo sapiens, UniProt Q13526) for `O=[N+]([O-])c1cnc(Cl)nc1Oc1cccc2ccccc12` is 4.65

pIC50 on Peptidyl-prolyl cis-trans isomerase NIMA-interacting 1 (Homo sapiens, UniProt Q13526) for CC1=C(/C=C/C(C)=C/C=C/C(C)=C/C(=O)O)C(C)(C)CCC1 [TRETINOIN] is 6.09

pIC50 on Peptidyl-prolyl cis-trans isomerase NIMA-interacting 1 (Homo sapiens, UniProt Q13526) for `O=[N+]([O-])c1cnc(Cl)nc1Oc1ccccc1` is 5.65

pIC50 on Peptidyl-prolyl cis-trans isomerase NIMA-interacting 1 (Homo sapiens, UniProt Q13526) for `Nc1ccccc1Oc1nc(Cl)ncc1[N+](=O)[O-]` is 4.47

----------
endpointName: pIC50
Lab note: report pIC50 as minus log10 of the concentration in molar units, number only.

pIC50 on Peptidyl-prolyl cis-trans isomerase NIMA-interacting 1 (Homo sapiens, UniProt Q13526) for `O=[N+]([O-])c1cnc(CCc2ccccc2)nc1Cl` is 4.86

pIC50 on Peptidyl-prolyl cis-trans isomerase NIMA-interacting 1 (Homo sapiens, UniProt Q13526) for `O=[N+]([O-])c1cnc(Cl)nc1Oc1ccccc1F` is 5.60

pIC50 on Peptidyl-prolyl cis-trans isomerase NIMA-interacting 1 (Homo sapiens, UniProt Q13526) for `O=C(O)c1cnc(Cl)nc1Oc1cccc2ocnc12` is 4.72

pIC50 on Peptidyl-prolyl cis-trans isomerase NIMA-interacting 1 (Homo sapiens, UniProt Q13526) for `O=C1C=CC(=O)N1c1cnc(Cl)nc1Nc1ccccc1` is 4.69

----------
The following molecules each carry a recorded pIC50 for Peptidyl-prolyl cis-trans isomerase NIMA-interacting 1 (Homo sapiens).
pIC50: −log10 of the molar value.

pIC50 on Peptidyl-prolyl cis-trans isomerase NIMA-interacting 1 (Homo sapiens) for `COC(=O)c1cnc(Cl)nc1Oc1cccc2ocnc12` is < 4.00

pIC50 on Peptidyl-prolyl cis-trans isomerase NIMA-interacting 1 (Homo sapiens) for `O=[N+]([O-])c1cncnc1Oc1cccc2ocnc12` is < 4.00

pIC50 on Peptidyl-prolyl cis-trans isomerase NIMA-interacting 1 (Homo sapiens) for `Cc1cnc(Cl)nc1Oc1ccccc1` is < 4.00
